The measurements presented in this section are drawn from patent EP0008888A1.

Tested on: Shigella sonnei MB 11967
Assay: MIC in a standard test
Format: cell-based
Conditions: MB11967
READOUT_KIND: log10 of MIC (log10 of the value in µg/mL)
Form field - Quantity: MIC; Unit: µg/mL; Scale: log10

// lookup log10 of MIC for CCSC1=C(C(=O)[O-])N2C(=O)CC2C1.[Na+] (stereo not shown)
0.72

// lookup log10 of MIC for O=C(O)C1=C(SCc2ccccc2)C[C@@H]2CC(=O)N12
0.79

// lookup log10 of MIC for CCSC1=C(C(=O)O)N2C(=O)[C@@H](C)[C@H]2C1 (relative stereo)
0.49

// lookup log10 of MIC for NCCSC1=C(C(=O)O)N2C(=O)CC2C1 (stereo not shown)
0.49

// lookup log10 of MIC for CCSC1=C(C(=O)OC2OC(=O)c3ccccc32)N2C(=O)[C@@H](CC)[C@H]2C1 (stereo partly shown)
1.10

// lookup log10 of MIC for CCSC1=C(C(=O)OC2OC(=O)c3ccccc32)N2C(=O)C[C@H]2C1 (stereo partly shown)
1.10

// lookup log10 of MIC for CCSC1=C(C(=O)OCc2ccc([N+](=O)[O-])cc2)N2C(=O)[C@@H](CCN=[N+]=[N-])[C@H]2C1 (relative stereo)
0.49

// lookup log10 of MIC for CNC(=O)OCCSC1=C(C(=O)[O-])N2C(=O)CC2C1.[Na+] (stereo not shown)
-0.10

// lookup log10 of MIC for CSC1=C(C(=O)[O-])N2C(=O)CC2C1.[Na+] (stereo not shown)
0.49

// lookup log10 of MIC for COCCSC1=C(C(=O)O)N2C(=O)C[C@H]2C1
0.49
